Recorded hEphA2-SEAP-: absorbance at 450 nm, percentage with respect to hEphA4-SEAP-His as 100% for the following molecules
Biological target: T1, human EphA2 (Homo sapiens, UniProt P29317)
T1 construct: a protein of the extracellular region of each human Eph receptor fused with the SEAP protein and the His tag; made in house; host or cells: Expi293F cells (culture supernatant)
T1 sequence (P29317 24-537 limits assumed): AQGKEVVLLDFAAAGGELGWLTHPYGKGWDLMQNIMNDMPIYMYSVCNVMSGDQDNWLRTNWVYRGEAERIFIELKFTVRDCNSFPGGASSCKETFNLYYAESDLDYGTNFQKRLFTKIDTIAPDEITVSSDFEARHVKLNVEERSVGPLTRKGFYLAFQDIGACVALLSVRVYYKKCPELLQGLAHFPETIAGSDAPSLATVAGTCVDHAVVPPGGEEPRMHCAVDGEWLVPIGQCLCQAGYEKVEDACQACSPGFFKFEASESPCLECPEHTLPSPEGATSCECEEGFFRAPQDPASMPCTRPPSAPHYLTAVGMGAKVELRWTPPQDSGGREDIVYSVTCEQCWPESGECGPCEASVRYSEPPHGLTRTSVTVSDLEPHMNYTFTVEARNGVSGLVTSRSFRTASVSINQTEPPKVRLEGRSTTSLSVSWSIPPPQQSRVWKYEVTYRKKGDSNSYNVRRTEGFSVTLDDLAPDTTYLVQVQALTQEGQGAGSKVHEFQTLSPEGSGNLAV
Test: Selectivity ELISA of humanized antibodies for human Eph receptor
Assay type: binding
Settings: coated protein 1 nM
Measured attribute: hEphA2-SEAP-: absorbance at 450 nm, percentage with respect to hEphA4-SEAP-His as 100% (%)

1) 141 (antibody, V domains shown, synthetic humanized antibody heavy chain variable region sequence; synthetic humanized antibody light chain variable region sequence) VH: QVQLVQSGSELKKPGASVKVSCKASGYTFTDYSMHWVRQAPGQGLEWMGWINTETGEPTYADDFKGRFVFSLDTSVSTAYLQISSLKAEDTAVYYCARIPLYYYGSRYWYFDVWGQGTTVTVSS VL: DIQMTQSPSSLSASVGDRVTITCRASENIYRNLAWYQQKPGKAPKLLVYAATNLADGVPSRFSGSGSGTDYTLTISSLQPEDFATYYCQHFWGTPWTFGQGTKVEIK | 5.2
2) 136 (antibody, V domains shown, synthetic humanized antibody heavy chain variable region sequence; synthetic humanized antibody light chain variable region sequence) VH: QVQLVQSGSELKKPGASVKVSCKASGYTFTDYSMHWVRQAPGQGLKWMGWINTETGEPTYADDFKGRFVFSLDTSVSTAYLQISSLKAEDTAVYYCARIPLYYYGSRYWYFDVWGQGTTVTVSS VL: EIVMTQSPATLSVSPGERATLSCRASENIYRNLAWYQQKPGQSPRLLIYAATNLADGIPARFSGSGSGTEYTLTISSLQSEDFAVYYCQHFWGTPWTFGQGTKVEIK | 5.1
3) 159 (antibody, V domains shown, synthetic humanized antibody heavy chain variable region sequence; synthetic humanized antibody light chain variable region sequence) VH: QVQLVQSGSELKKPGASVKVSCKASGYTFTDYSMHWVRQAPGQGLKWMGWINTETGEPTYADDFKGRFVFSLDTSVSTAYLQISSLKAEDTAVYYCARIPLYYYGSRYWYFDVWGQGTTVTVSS VL: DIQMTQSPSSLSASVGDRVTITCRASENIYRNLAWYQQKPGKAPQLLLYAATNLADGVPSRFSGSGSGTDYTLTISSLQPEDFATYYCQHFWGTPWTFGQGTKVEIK | 5.4
4) 138 (antibody, V domains shown, synthetic humanized antibody heavy chain variable region sequence; synthetic humanized antibody light chain variable region sequence) VH: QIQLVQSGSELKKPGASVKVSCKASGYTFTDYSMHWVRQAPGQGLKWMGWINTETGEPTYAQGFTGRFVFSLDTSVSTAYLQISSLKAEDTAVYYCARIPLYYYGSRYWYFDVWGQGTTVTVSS VL: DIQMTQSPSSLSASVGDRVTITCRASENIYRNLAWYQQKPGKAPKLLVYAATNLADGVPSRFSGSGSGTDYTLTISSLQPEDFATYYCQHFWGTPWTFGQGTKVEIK | 5.0

Data provenance is patent US10428140B2.
